Target: recombinant human MGAT2 (Homo sapiens (Human), UniProt Q3SYC2)
Sequence (Q3SYC2 whole entry): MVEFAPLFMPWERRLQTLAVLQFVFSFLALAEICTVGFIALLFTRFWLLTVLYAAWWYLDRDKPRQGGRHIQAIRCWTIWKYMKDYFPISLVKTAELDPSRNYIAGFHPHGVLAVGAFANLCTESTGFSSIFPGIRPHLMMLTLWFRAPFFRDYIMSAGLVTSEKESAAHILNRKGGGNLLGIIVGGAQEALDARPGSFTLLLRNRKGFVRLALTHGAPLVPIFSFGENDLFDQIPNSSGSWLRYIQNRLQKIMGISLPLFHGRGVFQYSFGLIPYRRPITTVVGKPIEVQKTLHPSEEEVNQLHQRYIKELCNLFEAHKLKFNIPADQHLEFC
Experiment: Measurement of human MGAT2 inhibitory activity
Type: biochemical
Conditions: read-out: IC50 (concentration exhibiting 50% enzyme inhibition), Table 52
Recorded measurements of pIC50, one per entry
Reminder that pIC50 means the negative base-10 logarithm of the concentration expressed in mol/L.

>>> recorded_value("CS(=O)(=O)CC(=O)Nc1c2c(nn1-c1ccc(C#N)cn1)C[C@](c1ccc(OCC(F)(F)F)cc1F)(C(F)(F)F)NC2=O [Compound I-170]")
8.29
>>> recorded_value("CS(=O)(=O)CC(=O)Nc1c2c(nn1-c1cccnn1)C[C@]1(CCc3cc(OCC(F)(F)F)ccc31)NC2=O [Compound I-265]")
7.44

Please look at the following molecule next.
Value lookup for pIC50; key = CS(=O)(=O)CC(=O)Nc1c2c(nn1CCC1CC1)C[C@]1(CCc3cc(CCC(F)(F)F)ccc31)NC2=O [Compound I-35]
8.17

====

Molecular target: recombinant human MGAT2 (Homo sapiens (Human))
Test: Measurement of human MGAT2 inhibitory activity
Format: biochemical
Settings: read-out: IC50 (concentration exhibiting 50% enzyme inhibition), Table 52
pIC50: −log10 of the molar value.
Assign label 1 whenever pIC50 does not fall below 7; assign label 0 whenever it does.

Some solved cases for reference:
>>> cat("O=C(NCc1c2c(nn1CCC1CC1)C[C@]1(CCc3cc(OCC(F)(F)F)ccc31)NC2=O)c1ccon1")
"label 0"
>>> cat("Cc1cc(C)cc(-n2nc3c(c2NC(=O)CS(C)(=O)=O)C(=O)N[C@@]2(CCc4cc(OCC(F)(F)F)ccc42)C3)c1")
"label 1"
>>> cat("CS(=O)(=O)CC(=O)Nc1c2c(nn1-c1ccc(F)cc1)C[C@]1(CCc3cc(OCC(F)(F)F)ccc31)NC2=O")
"label 1"
>>> cat("O=C1N[C@@]2(CCc3cc(OCCCC(F)(F)F)ccc32)Cc2nn(CCC3CC3)c(C(=O)NS(=O)(=O)C3CC3)c21")
"label 1"

Item `Cn1ccc(C(=O)Nc2c3c(nn2CCC2CC2)C[C@]2(CCc4cc(OCC(F)(F)F)ccc42)NC3=O)n1` with pIC50 of 7 or above?
label 0

Item `CS(=O)(=O)CC(=O)Nc1c2c(nn1CCc1ccccc1)C[C@]1(CCc3cc(OCCCC(F)(F)F)ccc31)NC2=O` with pIC50 of 7 or above?
label 1

====

Target: recombinant human MGAT2 (Homo sapiens (Human))
Assay: Measurement of human MGAT2 inhibitory activity
Type: biochemical
Conditions: read-out: IC50 (concentration exhibiting 50% enzyme inhibition), Table 52
Property Measured: IC50 (nM)
Give your result in nM as a bare value.

Record excerpt, results attached:
>>> recorded_value("CS(=O)(=O)CC(=O)Nc1c2c(nn1CCC1CC1)C[C@](c1ccc(OCC(F)(F)F)cc1F)(C(F)(F)F)NC2=O [Compound I-171]")
12
>>> recorded_value("CS(=O)(=O)CC(=O)Nc1c2c(nn1CCC1CC1)C[C@@]1(CCc3cc(OCC(F)(F)F)ccc31)NC2=O [Compound I-71]")
3.9
>>> recorded_value("CS(=O)(=O)CC(=O)Nc1c2c(nn1-c1ccc(Br)cn1)C[C@]1(CCc3cc(OCC(F)(F)F)ccc31)NC2=O [Compound I-91]")
1.2
>>> recorded_value("O=C1N[C@@]2(CCc3cc(OCC(F)(F)F)ccc32)Cc2nn(CCC3CC3)c(NC(=O)C3CS(=O)(=O)C3)c21 [Compound I-183]")
18
>>> recorded_value("CS(=O)(=O)CC(=O)Nc1c2c(nn1-c1ccc(C#N)cn1)C[C@]1(CCc3cc(N4CC(F)(F)C4)ccc31)NC2=O [Compound I-67]")
7

Please look at the following compound next.
Value lookup for IC50; key = Cc1cccc(-n2nc3c(c2NC(=O)CS(C)(=O)=O)C(=O)N[C@@]2(CCc4cc(OCC(F)(F)F)ccc42)C3)n1 [Compound I-134]
340
